Origin of values: patent US10287297B2

# RXF 393: GI50 values follow
Experimental readout: GI50 (nM)

>>> val("CC1=C2[C@@H](CC1)[C@]1(C)O[C@@](C(C)C)(C[C@H]1OC(=O)CO)[C@H]2OC(=O)C1CC1c1ccccc1 (stereo partly shown)")
69
>>> val("CC1=C2[C@@H](CC1)[C@]1(C)O[C@@](C(C)C)(C[C@H]1OC(=O)[C@H](C)O)[C@H]2OC(=O)C=Cc1ccccc1")
45
>>> val("CC1=C2[C@@H](CC1)[C@]1(C)O[C@@](C3CCCCC3)(C[C@H]1OC(=O)CO)[C@H]2OC(=O)C=Cc1ccccc1")
25
>>> val("CC1=C2[C@@H](CC1)[C@]1(C)O[C@@](c3ccccc3)(C[C@H]1OC(=O)CO)[C@H]2OC(=O)C=Cc1ccccc1")
27
>>> val("CC1=C2[C@@H](CC1)[C@]1(C)O[C@@](C3CC3)(C[C@H]1OC(=O)CO)[C@H]2OC(=O)C=Cc1ccccc1")
14
>>> val("CC(=O)O[C@@H]1C[C@]2(C(C)C)O[C@@]1(C)[C@@H]1CCC(C)=C1[C@@H]2OC(=O)C=Cc1ccccc1")
8900
>>> val("CC1=C2[C@@H](CC1)[C@]1(C)O[C@@](C(C)C)(C[C@H]1OC(=O)CO)[C@H]2OC(=O)/C=C/c1ccccc1")
130
